Tested System: T1, E. coli ColE-7 (E. coli, UniProt Q47112 444-576)
T1 sequence: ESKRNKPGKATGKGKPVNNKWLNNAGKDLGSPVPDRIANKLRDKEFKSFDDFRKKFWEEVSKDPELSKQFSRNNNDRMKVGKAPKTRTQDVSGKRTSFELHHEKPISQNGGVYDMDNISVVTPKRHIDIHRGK
Test Details: SPR Biacore T200, 37 C, single cycle kinetics; biotinylated immunity protein on streptavidin sensor, colicin analyte 1.1-90 nM
pKd: −log10 of the molar value.
Reported Metric: pKd

Looking up E. coli IM-7, singly biotinylated (other) MELKNSISDYTEAEFVQLLKEIEKENVAATDDVLDVLLEHFVKITEHPDGTDLIYYPSDNRDDSPEGIVKEIKEWRAANGKPGFKQG , I found its pKd recorded as > 11.24
